The origin of these recorded values is patent US11566007B2.

Target: KRAS G13D (Homo sapiens (Human), UniProt P01116+P62937, G13D)
Sequence (P01116-2 other isoform, or with tags, fused parts or gaps G13D): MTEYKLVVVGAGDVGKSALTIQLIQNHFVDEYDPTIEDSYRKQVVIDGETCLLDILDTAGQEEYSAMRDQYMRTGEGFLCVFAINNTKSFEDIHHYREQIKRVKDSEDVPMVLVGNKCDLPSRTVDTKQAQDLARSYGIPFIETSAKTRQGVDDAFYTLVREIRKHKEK
Sequence (P62937 whole entry): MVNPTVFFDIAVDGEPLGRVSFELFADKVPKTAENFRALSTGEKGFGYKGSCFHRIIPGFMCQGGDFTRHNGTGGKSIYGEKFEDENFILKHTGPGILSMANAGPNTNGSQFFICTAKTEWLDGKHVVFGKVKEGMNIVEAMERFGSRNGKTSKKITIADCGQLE
Experiment: Ras-Raf (BRAF RBD) disruption / FRET / MOA assay, KRAS G13D
Format: biochemical
Settings: read-out: IC50* KRAS G13D FRET data

molecule: CCn1c(-c2cccnc2[C@H](C)OC)c2c3cc(ccc31)-c1csc(n1)C[C@H](NC(=O)[C@H](C(C)C)N(C)C(=O)N1CCC13CN(C(=O)/C=C/CN1CCOCC1)C3)C(=O)N1CCC[C@H](N1)C(=O)OCC(C)(C)C2 (atropisomer, axis not shown)
IC50: 0.1 to 1 µM

molecule: CO[C@@H](C)c1ncccc1-c1c2c3cc(ccc3n1CC(F)(F)F)-c1nc(cs1)C[C@H](NC(=O)[C@H](C(C)C)N(C)C(=O)[C@H]1CCN(C(=O)C#CC(C)(C)N3CCC3)C1)C(=O)N1CCC[C@H](N1)C(=O)OCC(C)(C)C2 (atropisomer, axis not shown)
IC50: 1 to 10 µM

molecule: CC#CC(=O)N1CC[C@H](C(=O)N(C)[C@H](C(=O)N[C@H]2Cc3nc(cs3)-c3ccc4c(c3)c(c(-c3cccnc3[C@H](C)OC)n4CC)CC(C)(C)COC(=O)[C@@H]3CCCN(N3)C2=O)C2CCCC2)C1 (atropisomer, axis not shown)
IC50: > 10 µM

molecule: C=CC(=O)N1CC[C@H](C(=O)N(C)[C@H](C(=O)N[C@H]2Cc3cc(O)cc(c3)-c3ccc4c(c3)c(c(-c3cnccc3[C@H](C)OC)n4CC)CC(C)(C)COC(=O)[C@@H]3CCCN(N3)C2=O)C(C)C)C1
IC50: 1 to 10 µM

molecule: C=CC(=O)N1CC[C@]2(CCN([C@H](C(=O)N[C@H]3Cc4cccc(c4)-c4ccc5c(c4)c(c(-c4cccnc4[C@H](C)OC)n5CC)CC(C)(C)COC(=O)[C@@H]4CCCN(N4)C3=O)C(C)C)C2=O)C1 (atropisomer, axis not shown)
IC50: 1 to 10 µM

molecule: C=CC(=O)N1CCO[C@H]2CN(C(=O)N(C)[C@H](C(=O)N[C@H]3Cc4coc(n4)-c4ccc5c(c4)c(c(-c4cccnc4[C@H](C)OC)n5CC(F)(F)F)CC(C)(C)COC(=O)[C@@H]4CCCN(N4)C3=O)C(C)C)C[C@H]21 (atropisomer, axis not shown)
IC50: 1 to 10 µM

molecule: C=CC(=O)N1CC[C@]2(C1)OCN([C@H](C(=O)N[C@H]1Cc3cccc(c3)-c3ccc4c(c3)c(c(-c3cccnc3[C@H](C)OC)n4CC)CC(C)(C)COC(=O)[C@@H]3CCCN(N3)C1=O)C(C)C)C2=O (atropisomer, axis not shown)
IC50: > 10 µM

molecule: C=CC(=O)N1CC[C@H](C(=O)N(C)[C@H](C(=O)N[C@@H]2C(=O)N3CCC[C@H](N3)C(=O)OCC(C)(C)Cc3c(-c4cncnc4)n(CC)c4ccc(cc34)-c3cccc(c3)[C@H]2O)C(C)C)C1
IC50: > 10 µM
